System: Staph. aureus 503
testName: Minimum bacteriostatic inhibitory concentration, Agar dilution method
Type: cell-based
assayEndpoint: Minimum bacteriostatic inhibitory concentration (micrograms per milliliter)
Expressed in micrograms per milliliter, but write only the number.

QUERY: Assign Minimum bacteriostatic inhibitory concentration to the following record: CC(C)CC(N)C(=O)NC1C(=O)NC(CC(N)=O)C(=O)NC2C(=O)NC3C(=O)NC(C(=O)NC(C(=O)O)c4cc(O)cc(O)c4-c4cc3ccc4O)C(OC3CC(C)(N)C(=O)C(C)O3)c3ccc(c(Cl)c3)Oc3cc2cc(c3OC2OC(CO)C(O)C(O)C2O)Oc2ccc(cc2Cl)C1O (stereo not drawn)
RESULT: 0.05

QUERY: Assign Minimum bacteriostatic inhibitory concentration to the following record: CC1OC(OC2c3ccc(c(Cl)c3)Oc3cc4cc(c3OC3OC(CO)C(O)C(O)C3O)Oc3ccc(cc3Cl)C(O)C(N)C(=O)NC(CC(N)=O)C(=O)NC4C(=O)NC3C(=O)NC2C(=O)NC(C(=O)O)c2cc(O)cc(O)c2-c2cc3ccc2O)CC(C)(N)C1=O (stereo not drawn)
RESULT: 6

QUERY: Assign Minimum bacteriostatic inhibitory concentration to the following record: CC(C)C[C@H](C(=O)N[C@H]1C(=O)NC(CC(N)=O)C(=O)N[C@H]2C(=O)N[C@H]3C(=O)N[C@H](C(=O)N[C@@H](C(=O)O)c4cc(O)cc(O)c4-c4cc3ccc4O)[C@H](O[C@H]3C[C@](C)(N)C(=O)[C@H](C)O3)c3ccc(c(Cl)c3)Oc3cc2cc(c3O[C@@H]2O[C@H](CO)[C@@H](O)[C@H](O)[C@H]2O)Oc2ccc(cc2Cl)[C@H]1O)N(C)C (stereo partly drawn)
RESULT: 0.4

---

Test system: Peptostrept. anaerob. 932
testName: Minimum bacteriostatic inhibitory concentration, Agar dilution method
Format: cell-based
assayEndpoint: Minimum bacteriostatic inhibitory concentration (micrograms per milliliter)
Expressed in micrograms per milliliter, but write only the number.

QUERY: Look up and report measured Minimum bacteriostatic inhibitory concentration (Peptostrept. anaerob. 932) for the following compound: CC(C)CC(N)C(=O)NC1C(=O)NC(CC(N)=O)C(=O)NC2C(=O)NC3C(=O)NC(C(=O)NC(C(=O)O)c4cc(O)cc(O)c4-c4cc3ccc4O)C(OC3CC(C)(N)C(=O)C(C)O3)c3ccc(c(Cl)c3)Oc3cc2cc(c3OC2OC(CO)C(O)C(O)C2O)Oc2ccc(cc2Cl)C1O (stereo not drawn) [Desmethylbalhimycin, desmethylbalhimycin]
RESULT: 25

QUERY: Look up and report measured Minimum bacteriostatic inhibitory concentration (Peptostrept. anaerob. 932) for the following compound: CNC(CC(C)C)C(=O)NC1C(=O)NC(CC(N)=O)C(=O)NC2C(=O)NC3C(=O)NC(C(=O)NC(C(=O)O)c4cc(O)cc(O)c4-c4cc3ccc4O)C(OC3CC(C)(N)C(=O)C(C)O3)c3ccc(c(Cl)c3)Oc3cc2cc(c3O)Oc2ccc(cc2Cl)C1O (stereo not drawn) [Desglucobalhimycin, desglucobalhimycin]
RESULT: 0.4

QUERY: Look up and report measured Minimum bacteriostatic inhibitory concentration (Peptostrept. anaerob. 932) for the following compound: CC1OC(OC2c3ccc(c(Cl)c3)Oc3cc4cc(c3OC3OC(CO)C(O)C(O)C3O)Oc3ccc(cc3Cl)C(O)C(N)C(=O)NC(CC(N)=O)C(=O)NC4C(=O)NC3C(=O)NC2C(=O)NC(C(=O)O)c2cc(O)cc(O)c2-c2cc3ccc2O)CC(C)(N)C1=O (stereo not drawn) [Desmethylleucylbalhimycin, desmethylleucylbalhimycin]
RESULT: 50
